Test method notes: chemical genetic growth profiling, strain panel (AID 1159580);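 also: tested at 20 µM; growth read once vehicle control cultures reached saturation at 30 °C; 1 = growth at the plate median or of vehicle wells; lower values mean less growth of the strain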
Protocol conditions: S. cerevisiae deletion strains, growth OD, locus YDR392W, strain spt3
Out of some 5,500 compounds screened, about 2,000 (36%) were called active. Another 18% or so got no clear call; they are omitted. Rule as the data show it: active = normalized growth mostly below about 0.91 (no sharp cut-off); inconclusive = no clear call, values can overlap the other calls; inactive = mostly above about 0.92. This is one part of the list.
Tick one outcome: active, inactive

IN: Called result for COc1cc(O)c(C(=O)O)c(O)c1
OUT: inactive

IN: Called result for O=c1cc(-c2ccc(O)cc2)oc2cc(O[C@@H]3O[C@H](CO)[C@@H](O)[C@H](O)[C@H]3O[C@@H]3OC[C@](O)(CO)[C@H]3O)cc(O)c12
OUT: inactive

IN: Called result for O=c1n(CCCN2CCN(c3cccc(Cl)c3)CC2)nc2ccccn12
OUT: inactive

IN: Called result for C[N+]1(C)C2CC[C@H]1CC(OC(=O)C(O)c1ccccc1)C2 (stereo partly specified)
OUT: inactive

IN: Called result for CC(=O)c1ccc2c(c1)N(CCCN(C)C)c1ccccc1S2
OUT: inactive

IN: Called result for O=c1[nH]c2ccccc2n1C1CCN(CCCC(c2ccc(F)cc2)c2ccc(F)cc2)CC1
OUT: active

IN: Called result for NCCS
OUT: inactive

IN: Called result for Cn1c([N+](=O)[O-])cnc1COC(N)=O
OUT: inactive

IN: Called result for Cc1ncc([N+](=O)[O-])n1CCO
OUT: inactive

IN: Called result for CC1=C2CCC3C(CC[C@]4(C)C(=O)CCC34)[C@@]2(C)CCC1=O (stereo partly specified)
OUT: active

IN: Called result for N#Cc1ccc2c(c1)N(CCCN1CCC(O)CC1)c1ccccc1S2
OUT: active

IN: Called result for Cn1nnnc1SCC1=C(C(=O)O)N2C(=O)C(NC(=O)C(OC=O)c3ccccc3)C2SC1 (stereo unspecified)
OUT: inactive

IN: Called result for O=C(/C=C/C(=O)Oc1ccccc1C(=O)O)Oc1ccccc1C(=O)O
OUT: inactive

IN: Called result for CC(C(=O)O)c1ccc(N2Cc3ccccc3C2=O)cc1 (stereo unspecified)
OUT: inactive

IN: Called result for CC1(C)S[C@@H]2[C@H](NC(=O)COc3ccccc3)C(=O)N2[C@H]1C(=O)O
OUT: inactive

IN: Called result for CCCC(=O)Nc1ncnc2c1ncn2C1O[C@@H]2COP(=O)(O)O[C@H]2[C@H]1OC(=O)CCC (stereo partly specified)
OUT: inactive

IN: Called result for CCOC(=O)C1=C(C)NC(C)=C(C(=O)OC)C1c1cccc([N+](=O)[O-])c1 (stereo unspecified)
OUT: inactive

IN: Called result for Nc1ncnc2c1ncn2[C@@H]1O[C@H](CO)[C@@H](O)[C@@H]1O
OUT: inactive

IN: Called result for Cc1cccc(N(C)C(=S)Oc2ccc3ccccc3c2)c1
OUT: inactive

IN: Called result for CC(=O)OCC(=O)[C@@]1(O)CCC2C3CCC4=CC(=O)CC[C@]4(C)[C@@]3(F)[C@@H](O)C[C@@]21C (stereo partly specified)
OUT: inactive

IN: Called result for C[C@]12CCC3C(CC[C@H]4C[C@@H](O)CC[C@]34C)C1CCC2=O (stereo partly specified)
OUT: active

###

Test method notes: chemical genetic growth profiling, strain panel (AID 1159580);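 also: tested at 20 µM; growth read once vehicle control cultures reached saturation at 30 °C; 1 = growth at the plate median or of vehicle wells; lower values mean less growth of the strain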
Protocol conditions: S. cerevisiae deletion strains, growth OD, locus YMR205C, strain PFK2, active compounds read low
Among all 5,500 compounds or so, about 2,000 (36%) were called active. Inconclusive results (about 18%) are left out. Some of the results follow.
Property label: normalized growth
Answer using only a numeral; do not append any unit.

IN: State, in one line, measured normalized growth of O=c1cc(-c2ccc(O)cc2)oc2cc(O[C@@H]3O[C@H](CO)[C@@H](O)[C@H](O)[C@H]3O[C@@H]3OC[C@](O)(CO)[C@H]3O)cc(O)c12
OUT: 1.01

IN: State, in one line, measured normalized growth of CCCCC/C=C\C/C=C\C/C=C\C/C=C\CCCC(=O)O
OUT: 0.919

IN: State, in one line, measured normalized growth of CC(C)=CCC1=C(O)c2ccccc2C(=O)C1=O
OUT: 0.837

IN: State, in one line, measured normalized growth of Cn1c([N+](=O)[O-])cnc1COC(N)=O
OUT: 0.982

IN: State, in one line, measured normalized growth of COP(=S)(OC)SCn1nnc2ccccc2c1=O
OUT: 1.03

IN: State, in one line, measured normalized growth of CNC(=O)CSP(=S)(OC)OC
OUT: 1.01
